solubility kinetic for assorted compounds
CONDITION DETAILS: buffer; pH 7.4; 200.0 µM

{"columns": ["COMPOUND", "solubility kinetic"],
 "data": [
  ["O=C(COC(=O)c1cnc(Cl)c(Cl)c1)Nc1cccc(S(=O)(=O)N2CCOCC2)c1", "38.9 µg/mL"],
  ["O=C(O)c1cc2c(=O)c3ccccc3oc2nc1C(F)(F)F", "> 46.4 µg/mL"],
  ["Cc1cccc(C(=O)NCCCNC(=O)c2ccco2)c1", "> 42.9 µg/mL"],
  ["CC(=O)Nc1ccc(OCc2cccc3ccccc23)cc1", "< 0.6 µg/mL"],
  ["CN1C(=O)OC(C)(C)C1=O", "< 0.3 µg/mL"],
  ["O=C(Nc1cccnc1)C1=NN(C2CCS(=O)(=O)C2)C(=O)CC1 (stereo unspecified)", "> 50.5 µg/mL"]
]}

----------
CONDITION DETAILS: buffer; pH 7.4; 200.0 µM
METRIC: log10 of solubility kinetic (log10 of the value in µg/mL)

{"columns": ["COMPOUND", "MEASURED RESULT"],
 "data": [
  ["CCC(C)(C)NC(=O)CCCSc1nc2ccccc2[nH]1", 1.46],
  ["Cc1occc1C(=O)N1CCN(c2ccc([N+](=O)[O-])cc2)CC1", 1.55],
  ["CN(c1ccccc1)S(=O)(=O)c1ccc(C(=O)N2CCN(c3ccccc3F)CC2)cc1", 0.56],
  ["CCc1cccc(NC(=S)N2CCC(c3ccccc3)C2)c1 (centres undefined)", 0.66],
  ["Cn1c(=O)c2c(ncn2CCOc2ccc(F)cc2)n(C)c1=O", 1.14],
  ["Cc1cccc(Nc2nc(OCC#N)nc(N(C)C)n2)c1", 0.45],
  ["COC(=O)c1c(SCC(=O)Nc2ccc(C)cc2)nc(=O)[nH]c1C", 0.92],
  ["COc1ccccc1NC(=S)N1CCCc2ccccc21", 1.36],
  ["O=C1C2C3CCC(C3)C2C(=O)N1c1ccc2ccccc2c1 (centres undefined)", 0.70],
  ["N#C/C(C(N)=O)=C1/SC=C(c2ccccc2)N1c1ccccc1", -0.40],
  ["COc1cccc(OCC(O)CNC(C)c2ccccc2)c1.Cl (centres undefined)", 1.69],
  ["CC(C)(C)c1ccc(-c2noc(-c3ccc4c(c3)CCO4)n2)cc1", -0.10],
  ["CCOc1ccccc1C(=O)NCCNC(=O)c1ccccc1OCC", 1.61]
]}

----------
solubility kinetic for assorted compounds
CONDITION DETAILS: buffer; pH 7.4; 200.0 µM
METRIC: solubility kinetic (µg/mL)

{"columns": ["COMPOUND", "SIGN QUALIFIER", "MEASURED RESULT"],
 "data": [
  ["Cc1cccc(NC(=S)NC(=O)C2CC2)c1", ">", 35.1],
  ["COc1ccc(NC(=O)/C=C/c2ccc(OC)c(OC)c2)cn1", "=", 11.3],
  ["COc1ccccc1NC(=O)c1ccc(-n2ccnc2)c([N+](=O)[O-])c1", ">", 50.7],
  ["CCNc1cc(N2CCOCC2)nc(SC)n1", ">", 38.2],
  ["Cc1ccc(S(=O)(=O)N2CC[C@@H]2C(=O)O)cc1", ">", 38.3],
  ["COc1ccc(N2C(S)=C(C#N)C(=O)NC23CCCCC3)cc1", "=", 19.3],
  ["Br.COc1ccc(NC2=NCCCCC2)cc1", "=", 44.7],
  ["O=C(Cc1ccc([N+](=O)[O-])cc1)N1CCN(Cc2ccc3c(c2)OCO3)CC1", "=", 46.4],
  ["O=C(O)c1ccc(Cn2c(=S)[nH]c3cc(Cl)ccc3c2=O)cc1", ">", 52],
  ["CC1(C)C(=O)N(c2ccccc2)C(=O)c2ccccc21", "=", 25.8],
  ["CC(=O)Nc1ccc(S(=O)(=O)N[C@@H](C)C(=O)NC2CCCc3ccccc32)cc1 (stereo partly specified)", "=", 30.3]
]}

----------
CONDITION DETAILS: buffer; pH 7.4; 200.0 µM
Mark false (0) for solubility kinetic values under 4 µg/mL, and true (1) for everything at or above.

{"columns": ["COMPOUND", "CLASS"],
 "data": [
  ["O=C(Nc1cccc(F)c1)c1c(O)c2ccccc2[nH]c1=O", "false (0)"],
  ["Cc1ccccc1NC(=O)c1ccco1", "true (1)"],
  ["CCNC(=S)NCc1ccc(OC)c(OC)c1", "true (1)"],
  ["CCn1c2ccccc2c2nc3cc(S(=O)(=O)N4CCOCC4)ccc3nc21", "false (0)"],
  ["COc1ccc(Cn2c(C)nc3ccc([N+](=O)[O-])cc3c2=O)cc1", "false (0)"],
  ["O=C(NCc1ccc(Cl)cc1)c1cc(=O)[nH]c2ccccc12", "false (0)"],
  ["CC(C)(C)c1ccc(NC(=S)NCc2cccnc2)cc1", "true (1)"],
  ["COc1ccc(N2CCN(C(=O)c3cc(C)on3)CC2)cc1", "true (1)"],
  ["CC(OC(=O)c1ccco1)C(=O)NCc1ccc2c(c1)OCO2 (centres undefined)", "true (1)"],
  ["COc1ccc(CNC(=O)C(=O)NCCCn2ccnc2)cc1", "true (1)"],
  ["COc1ccc(Cl)cc1N1C(=N)SCC1=O", "true (1)"],
  ["CC(OC(=O)c1cccc([N+](=O)[O-])c1)C(=O)N1CCc2ccccc21 (centres undefined)", "false (0)"],
  ["CC(=O)c1c(COC(=O)c2ccc(C)cc2)nc2ccccc2[n+]1[O-]", "false (0)"],
  ["Brc1ccc(-c2cn3ccccc3n2)cc1", "false (0)"],
  ["CCCc1cc(=O)[nH]c(SCC(=O)Nc2cc(S(=O)(=O)N3CCOCC3)ccc2N(CC)CC)n1", "true (1)"],
  ["Cc1ccccc1-c1nc(CN2CCSCC2)c(C)o1", "true (1)"],
  ["Cc1ccc(CN2CCN(Cc3ccc(O)cc3)CC2CCO)o1 (centres undefined)", "true (1)"],
  ["CCCc1cc(=O)[nH]c(SCC(=O)N2c3ccccc3NC(=O)C2(C)C)n1", "true (1)"],
  ["COc1ccc(CNC(=O)CCn2c(C)csc2=O)cc1", "true (1)"],
  ["Cc1cc(OCC(=O)N(C(C)C)C(C)C)ccc1Cl", "true (1)"],
  ["CCn1c(SCC(=O)Nc2ccc(C)cc2)nc(O)cc1=O", "true (1)"],
  ["CSc1ncccc1C(=O)OCC(=O)N1CC2(C)CC1CC(C)(C)C2 (centres undefined)", "true (1)"],
  ["Nc1ccn(C2CC(O)C(CO)O2)c(=O)n1 (centres undefined)", "true (1)"],
  ["CCOC(=O)C1CCCN(C(=O)CNC(=O)c2ccc(Br)o2)C1 (centres undefined)", "true (1)"]
]}

----------
CONDITION DETAILS: buffer; pH 7.4; 200.0 µM
METRIC: solubility kinetic (µg/mL)

{"columns": ["COMPOUND", "METRIC", "UNIT OF MEASURE", "SIGN QUALIFIER", "MEASURED RESULT"],
 "data": [
  ["Nc1ccc(C(=O)O)c(O)c1", "solubility kinetic", "µg/mL", ">", 23],
  ["COc1cc(/C=C2\\SC(N)=NC2=O)ccc1O", "solubility kinetic", "µg/mL", "=", 34.5],
  ["COc1ccc(CN2CCSc3sccc3C2=O)cc1", "solubility kinetic", "µg/mL", ">", 45.8],
  ["COC(=O)c1sccc1NC(=O)CSc1ccccc1N", "solubility kinetic", "µg/mL", "=", 20.8],
  ["COC(=O)C(Cc1cccc(C)n1)(c1ccccc1)c1ccccc1", "solubility kinetic", "µg/mL", "=", 14.2],
  ["O=C(COC(=O)c1ccc(F)cc1F)Nc1ccc(Cl)cn1", "solubility kinetic", "µg/mL", "=", 3.9],
  ["CC(C)(C)SCCNS(=O)(=O)c1ccc(C#N)cc1", "solubility kinetic", "µg/mL", "=", 18.1],
  ["O=C(Nc1cccnc1)Nc1cccc([N+](=O)[O-])c1", "solubility kinetic", "µg/mL", "=", 10],
  ["O=C(O)COCC(=O)Nc1ccc2c(c1)oc1ccccc12", "solubility kinetic", "µg/mL", ">", 44.9],
  ["CNC(=O)c1cc2cc(Br)ccc2s1", "solubility kinetic", "µg/mL", "=", 8.1],
  ["COC(=O)c1ccc(Nc2c([N+](=O)[O-])ccc3nonc23)cc1", "solubility kinetic", "µg/mL", "<", 0.2],
  ["Cc1ccc(CC2CC(=O)N(c3ccc(C)cc3)C2=O)cc1 (stereo not given)", "solubility kinetic", "µg/mL", "=", 7.8],
  ["Cl.c1ccc(-c2ccc(OCCN3CCOCC3)cc2)cc1", "solubility kinetic", "µg/mL", "=", 29.8],
  ["Cc1ccc(NC(=O)CN2CCOCC2)cc1S(=O)(=O)N1CCCCC1", "solubility kinetic", "µg/mL", ">", 57.2],
  ["Cc1cc(C(=O)COC(=O)c2cccc(NS(C)(=O)=O)c2)c(C)n1CC1CCCO1 (stereo not given)", "solubility kinetic", "µg/mL", "=", 43.5],
  ["CCCC(=O)Nc1ccccc1NC(=O)c1ccc(OC(C)=O)cc1", "solubility kinetic", "µg/mL", "=", 47.5],
  ["Cc1cc[n+](CC(=O)Nc2ccccc2)cc1.[Br-]", "solubility kinetic", "µg/mL", "=", 45.4],
  ["CN(C(=S)NC(=O)c1ccccc1)C1CCCCC1", "solubility kinetic", "µg/mL", ">", 41.5],
  ["Cc1nc2ccccc2c2oc(C(=O)N3CC(C)CC(C)C3)cc12 (stereo not given)", "solubility kinetic", "µg/mL", "=", 35.5],
  ["CC1(C2CC2)NC(=O)N(CC(=O)Nc2ccc(F)cc2F)C1=O (stereo not given)", "solubility kinetic", "µg/mL", ">", 48.5],
  ["Cc1ccc2c(CN3CCOCC3)cc(=O)oc2c1", "solubility kinetic", "µg/mL", ">", 38.9],
  ["COc1cccc(C(=O)Nc2cc(Cl)c(O)c(Cl)c2)c1", "solubility kinetic", "µg/mL", "=", 15],
  ["COc1cc2c(cc1OC)C(c1cc([N+](=O)[O-])ccc1O)NCC2 (stereo not given)", "solubility kinetic", "µg/mL", ">", 49.6],
  ["CC(Oc1ccc(Cl)cc1)C(=O)NCC1CCCO1 (stereo not given)", "solubility kinetic", "µg/mL", "=", 41.5],
  ["Clc1ccc(N=c2ssnc2Cl)cc1", "solubility kinetic", "µg/mL", "=", 2.7]
]}
